target: Cytochrome P450 (Mycobacterium tuberculosis); assay: Binding affinity to Mycobacterium tuberculosis CYP121 expressed in Escherichia coli HMS174 (DE3) assessed as compound-adduct formation by measuring high spin complex at 0.5 to 2 mM incubated for 20 mins by EPR Spectroscopic method (reference value: 0%)
Exercise: state measured Activity for each of the compounds provided.
Give bare numbers, in %.

Some entries whose results are on file:
O=C1N[C@@H](Cc2ccc(F)cc2)C(=O)N[C@H]1Cc1ccc(F)cc1 1.5
O=C1N[C@@H](Cc2ccc(I)cc2)C(=O)N[C@H]1Cc1ccc(I)cc1 7.5

// below: Activity requested for another compound
What value of Activity has been reported for the following compound? O=C1N[C@@H](Cc2ccc(O)cc2)C(=O)N[C@H]1Cc1ccc(O)cc1
2.7

---

Biological target: UniProt A0A0T9WNE5
Sequence (A0A0T9WNE5 whole entry): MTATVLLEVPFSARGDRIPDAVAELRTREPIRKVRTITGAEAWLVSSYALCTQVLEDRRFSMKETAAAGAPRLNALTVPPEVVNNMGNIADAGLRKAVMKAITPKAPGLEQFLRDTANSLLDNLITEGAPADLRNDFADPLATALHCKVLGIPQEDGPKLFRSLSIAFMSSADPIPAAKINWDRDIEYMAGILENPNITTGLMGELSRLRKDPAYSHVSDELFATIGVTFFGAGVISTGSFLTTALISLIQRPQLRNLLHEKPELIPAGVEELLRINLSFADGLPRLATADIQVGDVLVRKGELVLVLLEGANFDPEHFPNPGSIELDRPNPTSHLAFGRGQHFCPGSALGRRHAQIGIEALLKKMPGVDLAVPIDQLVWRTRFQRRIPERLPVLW
Assay: Binding affinity to Mycobacterium tuberculosis His6-tagged CYP121 assessed as compound-adduct formation by measuring high spin complex at 0.5 to 2 mM incubated for 20 mins by EPR Spectroscopic method (reference value: 0%)
Exercise: state measured Activity for each of the compounds provided.
One number for each entry, in %.

Some entries whose results are on file:
O=C1N[C@@H](Cc2ccc(O)c(I)c2)C(=O)N[C@H]1Cc1ccc(O)cc1 86
O=C1N[C@@H](Cc2ccc(O)c(Br)c2)C(=O)N[C@H]1Cc1ccc(O)cc1 68
Cc1cc(C[C@@H]2NC(=O)[C@H](Cc3ccc(O)cc3)NC2=O)cc(C)c1O 62
Cc1cc(O)cc(C)c1C[C@@H]1NC(=O)[C@H](Cc2ccc(O)cc2)NC1=O 1.9
O=C1N[C@@H](Cc2cc(I)c(O)c(I)c2)C(=O)N[C@H]1Cc1ccc(O)cc1 38

For every item below, please supply its Activity.
1. O=C1N[C@@H](Cc2ccc(O)c(F)c2)C(=O)N[C@H]1Cc1ccc(O)cc1
2. Cc1cc(C[C@@H]2NC(=O)[C@H](Cc3ccc(O)cc3)NC2=O)ccc1O
3. Cc1cc(O)ccc1C[C@@H]1NC(=O)[C@H](Cc2ccc(O)cc2)NC1=O
4. O=C1N[C@@H](Cc2ccc(O)c(Cl)c2)C(=O)N[C@H]1Cc1ccc(O)cc1

1: 1.2; 2: 11; 3: 0.6; 4: 21

---

Exercise: state measured pKd for each of the compounds provided.
target: Cytochrome P450 (Mycobacterium tuberculosis); assay: Binding affinity to Mycobacterium tuberculosis His6-tagged CYP121 by UV-visible scanning spectrophotometric analysis
Answers are plain numbers, as −log10 of the molar value.

Some entries whose results are on file:
O=C1N[C@@H](Cc2ccc(O)c(F)c2)C(=O)N[C@H]1Cc1ccc(O)cc1 4.89
O=C1N[C@@H](Cc2ccc(O)c(I)c2)C(=O)N[C@H]1Cc1ccc(O)cc1 6.55

For every item below, please supply its pKd.
1. Cc1cc(C[C@@H]2NC(=O)[C@H](Cc3ccc(O)cc3)NC2=O)ccc1O
2. Cc1cc(C[C@@H]2NC(=O)[C@H](Cc3ccc(O)cc3)NC2=O)cc(C)c1O
3. O=C1N[C@@H](Cc2cc(I)c(O)c(I)c2)C(=O)N[C@H]1Cc1ccc(O)cc1
4. O=C1N[C@@H](Cc2ccc(O)c(Br)c2)C(=O)N[C@H]1Cc1ccc(O)cc1
5. O=C1N[C@@H](Cc2ccc(O)c(Cl)c2)C(=O)N[C@H]1Cc1ccc(O)cc1

1. 5.96
2. 4.82
3. 5.04
4. 6.34
5. 5.82

What value of pKd has been reported for the following compound? Cc1cc(O)ccc1C[C@@H]1NC(=O)[C@H](Cc2ccc(O)cc2)NC1=O
4.40
